Values compiled from ChEMBL document CHEMBL4422644.

System: HeLa
assay-comment: Cytotoxicity against human HeLa cells after 24 hrs by MTT assay
Type: functional, cell-based
IC50 listing for selected compounds.
# output: bare number, implied unit µM

Cc1nc(C)c(C(=O)N(c2cccc(C)c2C)C(C(=O)NC2CCCCC2)c2ccncc2)s1 (stereo not drawn)	10.5
Cc1cccc(N(C(=O)c2ccc[nH]2)C(C(=O)NC2CCCCC2)c2ccncc2)c1C (stereo not drawn)	13.1
Cc1cccc(N(C(=O)c2cccs2)C(C(=O)NC2CCCCC2)c2ccccc2)c1C (stereo not drawn)	12.7
Cc1ccc(N(C(=O)c2sc(C)nc2C)C(C(=O)NC2CCCCC2)c2c(F)cc(Br)cc2F)cc1 (stereo not drawn)	22.2
Cc1cccc(N(C(=O)c2c(C)noc2C)C(C(=O)NC2CCCCC2)c2cccnc2)c1C (stereo not drawn)	14.1

Value lookup for IC50; key = Cc1ccc(N(C(=O)c2sc(C)nc2C)C(C(=O)NC2CCCCC2)c2ccc(Cl)cc2)cc1 (stereo not drawn)
11.9

Value lookup for IC50; key = Cc1cccc(N(C(=O)c2ccncc2)C(C(=O)NC2CCCCC2)c2cccnc2)c1C (stereo not drawn)
11.2

Value lookup for IC50; key = Cc1cccc(N(C(=O)c2ccc[nH]2)C(C(=O)NC2CCCCC2)c2cccnc2)c1C (stereo not drawn)
10

Value lookup for IC50; key = Cc1nc(C)c(C(=O)N(c2cccc(C)c2C)C(C(=O)NC2CCCCC2)c2ccc(Cl)cc2)s1 (stereo not drawn)
13.9

Value lookup for IC50; key = Cc1ccc(N(C(=O)c2sc(C)nc2C)C(C(=O)NC2CCCCC2)c2ccc[nH]2)cc1 (stereo not drawn)
11.6

Value lookup for IC50; key = Cc1cccc(N(C(=O)c2c(C)noc2C)C(C(=O)NC2CCCCC2)c2ccccc2)c1C (stereo not drawn)
8.67

Value lookup for IC50; key = Cc1ccc(N(C(=O)c2ccc[nH]2)C(C(=O)NC2CCCCC2)c2cccnc2)cc1 (stereo not drawn)
12

Value lookup for IC50; key = Cc1ccc(N(C(=O)c2sc(C)nc2C)C(C(=O)NC2CCCCC2)c2ccccc2)c(C)c1 (stereo not drawn)
9.43

Value lookup for IC50; key = Cc1nc(C)c(C(=O)N(c2cccc(C)c2C)C(C(=O)NC2CCCCC2)c2ccccc2)s1 (stereo not drawn)
8.29

====

assay-comment: Selectivity index, ratio of IC50 for HEK cells to MIC for Mycobacterium tuberculosis H37Rv
Format: toxicity
condition-set: human, read-out: Selectivity Index
# if value of selectivity ratio reaches 30, tag fulfilled; if it stays below, tag not fulfilled

Cc1nc(C)c(C(=O)N(c2cccc(C)c2C)C(C(=O)NC2CCCCC2)c2ccncc2)s1 (stereo not given)	fulfilled

Exam item: decide whether the reported selectivity ratio for Cc1cccc(N(C(=O)c2c(C)noc2C)C(C(=O)NC2CCCCC2)c2ccccc2)c1C (stereo not given) is at least 30.
fulfilled

Exam item: decide whether the reported selectivity ratio for Cc1cccc(N(C(=O)C2CCCCN2)C(C(=O)NC2CCCCC2)c2ccccc2)c1C (stereo not given) is at least 30.
fulfilled

Exam item: decide whether the reported selectivity ratio for Cc1ccc(N(C(=O)c2sc(C)nc2C)C(C(=O)NC2CCCCC2)c2cccnc2)cc1 (stereo not given) is at least 30.
not fulfilled

Exam item: decide whether the reported selectivity ratio for Cc1nc(C)c(C(=O)N(c2cccc(C)c2C)C(C(=O)NC2CCCCC2)c2cccnc2)s1 (stereo not given) is at least 30.
fulfilled

====

Test system: HepG2
assay-comment: Cytotoxicity against human HepG2 cells after 24 hrs by MTT assay
Assay type: functional, cell-based
condition-set: HepG2, 24 h
IC50 listing for selected molecules.
# output: bare number, implied unit µM

Cc1cccc(N(C(=O)c2cccs2)C(C(=O)NC2CCCCC2)c2ccccc2)c1C (centres undefined)	9.63
Cc1ccc(N(C(=O)c2ccc[nH]2)C(C(=O)NC2CCCCC2)c2cccnc2)cc1 (centres undefined)	11.5
Cc1ccc(N(C(=O)c2sc(C)nc2C)C(C(=O)NC2CCCCC2)c2ccccc2)c(C)c1 (centres undefined)	12.6
Cc1ccc(N(C(=O)c2sc(C)nc2C)C(C(=O)NC2CCCCC2)c2ccc(Cl)cc2)cc1 (centres undefined)	5.33

Value lookup for IC50; key = Cc1nc(C)c(C(=O)N(c2cccc(C)c2C)C(C(=O)NC2CCCCC2)c2cccnc2)s1 (centres undefined)
14

Value lookup for IC50; key = Cc1cccc(N(C(=O)C2CCCCN2)C(C(=O)NC2CCCCC2)c2ccccc2)c1C (centres undefined)
10.6

Value lookup for IC50; key = Cc1ccc(N(C(=O)c2c(C)noc2C)C(C(=O)NC2CCCCC2)c2cccnc2)cc1 (centres undefined)
10.3

Value lookup for IC50; key = Cc1cccc(N(C(=O)c2ccncc2)C(C(=O)NC2CCCCC2)c2cccnc2)c1C (centres undefined)
12.7

Value lookup for IC50; key = Cc1ccc(N(C(=O)c2sc(C)nc2C)C(C(=O)NC2CCCCC2)c2cccnc2)cc1 (centres undefined)
6.75

====

Test system: A549
assay-comment: Cytotoxicity against human A549 cells after 24 hrs by MTT assay
Assay type: functional, cell-based
condition-set: A549, 24 h
metric-name: IC50 (µM)
# output: bare number, implied unit µM

Cc1cccc(N(C(=O)c2ccc[nH]2)C(C(=O)NC2CCCCC2)c2ccncc2)c1C (stereo not drawn)	15.8
Cc1nc(C)c(C(=O)N(c2cccc(C)c2C)C(C(=O)NC2CCCCC2)c2ccncc2)s1 (stereo not drawn)	6.6
Cc1ccc(N(C(=O)c2sc(C)nc2C)C(C(=O)NC2CCCCC2)c2ccncc2)cc1 (stereo not drawn)	11.6
Cc1ccc(N(C(=O)c2sc(C)nc2C)C(C(=O)NC2CCCCC2)c2ccc(Cl)cc2)cc1 (stereo not drawn)	10.3
Cc1cccc(N(C(=O)c2ccc[nH]2)C(C(=O)NC2CCCCC2)c2cccnc2)c1C (stereo not drawn)	17.5

Value lookup for IC50; key = Cc1nc(C)c(C(=O)N(c2cccc(C)c2C)C(C(=O)NC2CCCCC2)c2ccccc2)s1 (stereo not drawn)
12.5

Value lookup for IC50; key = Cc1cccc(N(C(=O)c2ccc[nH]2)C(C(=O)NC2CCCCC2)c2ccccc2)c1C (stereo not drawn)
6.83

Value lookup for IC50; key = Cc1nc(C)c(C(=O)N(c2cccc(C)c2C)C(C(=O)NCc2ccccc2)c2ccccc2)s1 (stereo not drawn)
12.7

Value lookup for IC50; key = Cc1ccc(N(C(=O)c2c(C)noc2C)C(C(=O)NC2CCCCC2)c2ccncc2)cc1 (stereo not drawn)
11

Value lookup for IC50; key = Cc1cccc(N(C(=O)c2c(C)noc2C)C(C(=O)NC2CCCCC2)c2ccccc2)c1C (stereo not drawn)
8.49

Value lookup for IC50; key = Cc1cccc(N(C(=O)c2c(C)noc2C)C(C(=O)NC2CCCCC2)c2cccnc2)c1C (stereo not drawn)
12.8

Value lookup for IC50; key = COc1cccc2c1C(=O)c1c(O)c3c(c(O)c1C2=O)C[C@@](O)(C(=O)CO)C[C@@H]3O[C@H]1C[C@H](N)[C@H](O)[C@H](C)O1
0.55

Value lookup for IC50; key = Cc1nc(C)c(C(=O)N(c2cccc(C)c2C)C(C(=O)NC2CCCCC2)c2cccnc2)s1 (stereo not drawn)
8.62

Value lookup for IC50; key = Cc1ccc(N(C(=O)c2c(C)noc2C)C(C(=O)NC2CCCCC2)c2cccnc2)cc1 (stereo not drawn)
12.9

Value lookup for IC50; key = Cc1ccc(N(C(=O)c2ccc[nH]2)C(C(=O)NC2CCCCC2)c2cccnc2)cc1 (stereo not drawn)
15.2

Value lookup for IC50; key = Cc1cccc(N(C(=O)C2CCCCN2)C(C(=O)NC2CCCCC2)c2ccccc2)c1C (stereo not drawn)
9.74

Value lookup for IC50; key = Cc1ccc(N(C(=O)c2sc(C)nc2C)C(C(=O)NC2CCCCC2)c2c(F)cc(Br)cc2F)cc1 (stereo not drawn)
11.7

Value lookup for IC50; key = Cc1nc(C)c(C(=O)N(c2cccc(C)c2C)C(C(=O)NC2CCCCC2)c2ccc(Cl)cc2)s1 (stereo not drawn)
9.2

Value lookup for IC50; key = Cc1ccc(N(C(=O)c2ccc[nH]2)C(C(=O)NC2CCCCC2)c2ccccc2)c(C)c1 (stereo not drawn)
15.5

Value lookup for IC50; key = Cc1ccc(N(C(=O)c2sc(C)nc2C)C(C(=O)NC2CCCCC2)c2ccc[nH]2)cc1 (stereo not drawn)
11.7

====

Test system: HepG2
assay-comment: Cytotoxicity against human HepG2 cells after 24 hrs by MTT assay
Type: functional, cell-based
condition-set: HepG2, 24 h
Hi all, reminder that labels come from IC50, split as band A (below 8 µM), band B (8 µM to below 10 µM), band C (10 µM or more)

Cc1ccc(N(C(=O)c2c(C)noc2C)C(C(=O)NC2CCCCC2)c2ccncc2)cc1 (centres undefined)	band B
Cc1ccc(N(C(=O)c2sc(C)nc2C)C(C(=O)NC2CCCCC2)c2ccncc2)cc1 (centres undefined)	band C
Cc1cc(C)c(N(C(=O)c2sc(C)nc2C)C(C(=O)NC2CCCCC2)c2ccccc2)c(C)c1 (centres undefined)	band A
COc1cccc2c1C(=O)c1c(O)c3c(c(O)c1C2=O)C[C@@](O)(C(=O)CO)C[C@@H]3O[C@H]1C[C@H](N)[C@H](O)[C@H](C)O1	band A
Cc1cccc(N(C(=O)c2c(C)noc2C)C(C(=O)NC2CCCCC2)c2ccccc2)c1C (centres undefined)	band C

Categorize the following entry: Cc1ccc(N(C(=O)c2sc(C)nc2C)C(C(=O)NC2CCCCC2)c2ccc[nH]2)cc1 (centres undefined)
band A

Categorize the following entry: Cc1cccc(N(C(=O)c2ccncc2)C(C(=O)NC2CCCCC2)c2ccccc2)c1C (centres undefined)
band A

Categorize the following entry: Cc1ccc(N(C(=O)c2ccc[nH]2)C(C(=O)NC2CCCCC2)c2ccccc2)c(C)c1 (centres undefined)
band C

Categorize the following entry: Cc1cccc(N(C(=O)c2ccc[nH]2)C(C(=O)NC2CCCCC2)c2ccncc2)c1C (centres undefined)
band B

Categorize the following entry: Cc1cccc(N(C(=O)c2ccc[nH]2)C(C(=O)NC2CCCCC2)c2cccnc2)c1C (centres undefined)
band B

Categorize the following entry: Cc1nc(C)c(C(=O)N(c2cccc(C)c2C)C(C(=O)NC2CCCCC2)c2ccc(Cl)cc2)s1 (centres undefined)
band A

Categorize the following entry: Cc1cccc(N(C(=O)c2c(C)noc2C)C(C(=O)NC2CCCCC2)c2cccnc2)c1C (centres undefined)
band C

Categorize the following entry: Cc1ccc(N(C(=O)c2sc(C)nc2C)C(C(=O)NC2CCCCC2)c2c(F)cc(Br)cc2F)cc1 (centres undefined)
band A

Categorize the following entry: Cc1nc(C)c(C(=O)N(c2cccc(C)c2C)C(C(=O)NC2CCCCC2)c2ccncc2)s1 (centres undefined)
band C

Categorize the following entry: Cc1nc(C)c(C(=O)N(c2cccc(C)c2C)C(C(=O)NC2CCCCC2)c2ccccc2)s1 (centres undefined)
band B

Categorize the following entry: Cc1cccc(N(C(=O)c2ccc[nH]2)C(C(=O)NC2CCCCC2)c2ccccc2)c1C (centres undefined)
band C

Categorize the following entry: Cc1ccc(N(C(=O)c2sc(C)nc2C)C(C(=O)NC2CCCCC2)c2ccccc2)cc1 (centres undefined)
band C
